# test target: T1, Recombinant purified human PD-1 protein, residues Leu25-Thr168, with a C-terminal 6-His tag (Homo sapiens, UniProt Q15116)
# T1 construct: programmed cell death protein 1 (PD-1), human, residues Leu25-Thr168; also called programmed cell death protein 1; PD-1-His monomer; source: bought: R&D Systems (catalog# 8986-PD, lot# DDJM0417041)
# T1 sequence (Q15116 25-168): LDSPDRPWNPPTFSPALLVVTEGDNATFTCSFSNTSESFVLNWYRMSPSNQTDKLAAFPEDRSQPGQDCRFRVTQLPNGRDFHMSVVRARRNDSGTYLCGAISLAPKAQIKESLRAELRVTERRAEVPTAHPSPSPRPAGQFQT
# test name: SPR; Biacore 8K, C1 chip (flat); mAb captured on amine-coupled goat anti-human IgG Fc, PD-1-His monomer as analyte (100 nM top, 3-fold dilutions), 1200 s dissociation; 25 C, HBS-EP+ pH 7.4; 1:1 Langmuir fit, apparent constants; 8 mAbs measured in two independent experiments
# recorded conditions: both partners purified
assay readout: kon (M⁻¹ s⁻¹)
Give the value in M⁻¹ s⁻¹ but do not write M⁻¹ s⁻¹ after it.

Answered examples (3):
[[record]]
binder = "mAb17 (antibody, V domains shown, IgG4; also called analog of camrelizumab; camre; source: HEK293 suspension cells, cotransfected, purified (Protein A)) VH: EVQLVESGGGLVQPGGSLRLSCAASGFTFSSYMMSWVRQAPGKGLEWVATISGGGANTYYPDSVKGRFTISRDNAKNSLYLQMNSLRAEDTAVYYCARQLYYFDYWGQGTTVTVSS VL: DIQMTQSPSSLSASVGDRVTITCLASQTIGTWLTWYQQKPGKAPKLLIYTATSLADGVPSRFSGSGSGTDFTLTISSLQPEDFATYYCQQVYSIPWTFGGGTKVEIK"
readout_units = "M⁻¹ s⁻¹"
value_observed = 245000

[[record]]
binder = "mAb16 (antibody, V domains shown, IgG4; also called analog of dostarlimab; dostar; source: HEK293 suspension cells, cotransfected, purified (Protein A)) VH: EVQLLESGGGLVQPGGSLRLSCAASGFTFSSYDMSWVRQAPGKGLEWVSTISGGGSYTYYQDSVKGRFTISRDNSKNTLYLQMNSLRAEDTAVYYCASPYYAMDYWGQGTTVTVSS VL: DIQLTQSPSFLSAYVGDRVTITCKASQDVGTAVAWYQQKPGKAPKLLIYWASTLHTGVPSRFSGSGSGTEFTLTISSLQPEDFATYYCQHYSSYPWTFGQGTKLEIK"
readout_units = "M⁻¹ s⁻¹"
value_observed = 379000

[[record]]
binder = "mAb04 (antibody, V domains shown, IgG4; also called analog of retifanlimab; retifan; source: HEK293 suspension cells, cotransfected, purified (Protein A)) VH: QVQLVQSGAEVKKPGASVKVSCKASGYSFTSYWMNWVRQAPGQGLEWIGVIHPSDSETWLDQKFKDRVTITVDKSTSTAYMELSSLRSEDTAVYYCAREHYGTSPFAYWGQGTLVTVSS VL: EIVLTQSPATLSLSPGERATLSCRASESVDNYGMSFMNWFQQKPGQPPKLLIHAASNQGSGVPSRFSGSGSGTDFTLTISSLEPEDFAVYFCQQSKEVPYTFGGGTKVEIK"
readout_units = "M⁻¹ s⁻¹"
value_observed = 877000


Note: attention shifts to another entry.
Request: Which kon is reported for this binder? mAb23 (antibody, V domains shown, IgG4; also called analog of cemiplimab; cemip; source: HEK293 suspension cells, cotransfected, purified (Protein A)) VH: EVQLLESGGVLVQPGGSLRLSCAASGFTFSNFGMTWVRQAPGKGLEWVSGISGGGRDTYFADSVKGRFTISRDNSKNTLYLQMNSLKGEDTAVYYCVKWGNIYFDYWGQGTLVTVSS VL: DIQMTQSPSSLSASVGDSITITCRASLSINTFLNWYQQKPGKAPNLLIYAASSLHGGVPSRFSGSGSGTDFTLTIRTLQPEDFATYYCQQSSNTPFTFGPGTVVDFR
Result: 250000

Taken from paper PMC7058304.
